These measurements were taken from patent US20150025225A1.

Measured Neutralizing activity_IC50, listed per entry for reference.
- subject of test: T1, cynomolgus monkey EL-C2 tag (cynomolgus monkey, UniProt Q9Y5X9 21-500 (human entry), limits assumed)
- T1 chain: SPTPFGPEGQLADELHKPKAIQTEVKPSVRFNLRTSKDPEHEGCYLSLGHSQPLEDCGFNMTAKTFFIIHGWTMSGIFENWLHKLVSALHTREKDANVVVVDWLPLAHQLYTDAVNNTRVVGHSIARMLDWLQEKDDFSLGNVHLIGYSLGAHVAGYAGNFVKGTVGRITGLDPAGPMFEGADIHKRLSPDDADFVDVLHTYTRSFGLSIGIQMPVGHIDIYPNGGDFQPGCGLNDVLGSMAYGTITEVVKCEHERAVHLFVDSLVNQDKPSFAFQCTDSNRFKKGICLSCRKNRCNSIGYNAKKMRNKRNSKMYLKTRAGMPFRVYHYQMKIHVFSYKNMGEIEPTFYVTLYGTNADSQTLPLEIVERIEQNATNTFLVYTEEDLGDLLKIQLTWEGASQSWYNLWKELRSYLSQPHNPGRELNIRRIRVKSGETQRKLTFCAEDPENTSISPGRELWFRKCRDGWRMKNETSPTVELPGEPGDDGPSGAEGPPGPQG
- test summary: cell-based or functional assay
Answer format: numeric, nM implied, no suffix.

Solved cases below.
The recorded Neutralizing activity_IC50 for entry 41H8 antibody (antibody, IgG1, V domains shown) VH: QVTLKESGPGILQPSQTLSLTCSFSGFSLSTYGMGVGWIRQPSGKGLEWLAHIWWNENKYYNTDLKSRLTISKDTSNNQVFLKIASVDTADTATYYCARIGPGVPFDYWGQGTTITVSS VL: DIQMTQSPSSLSASLGGKVTITCKASQDINKFIAWYQHKPGKGPRLLIHYTSTLQPGIPSRFNGSGSGRDYSFTISNLEPEDIATYYCLQYDILTWTFGGGTKLEIK equals 5.9

Notebook: 3B1 antibody (antibody, IgG1, V domains shown) VH: QVTLKESGPGILQPSQTLSLTCSFSGFSLSTSGVGVGWIRQPSGKGLEWLAHIWWNDNKYYNTALKSRLTISKDTSNNQVFLKIASVDTADTATYFCARSYDGYPFDYWGQGTLVTVSA VL: DIQMTQSPSSLSASLGGKVTITCKASQDINKYIVWYQHKPGKGPRLLIHHTSTLQPGIPSRFSESGSGRDYSFSISNLEPEDIASYYCLQYDTLLWTFGGGTKLEIR , Neutralizing activity_IC50 read as 6.2

---
Field Neutralizing activity_IC50 (entry 12B10 antibody (antibody, IgG2a, V domains shown) VH: QVTLKESGPGILKPSQTLSLTCSFSGFSLSTSGMGVGWIRQPSGKGLEWLAHIWWNDEKYYNPSLKSQLTISKDTSRNQVFLKITSVDTADTATYYCARSYDGSPFPSWGQGTLVTVSA VL: DIQMTQSPSSLSASLGGKVTITCKASQDINKYIAWFQHKPGKGPRLLMAYPFTLQPGIPSRFSGNGSGRDYSFSISNLEPEDIATYYCLQYDNLLWTFGGGTRLEIK ) reads 6.2
